test: NCI Yeast Anticancer Drug Screen. Data for the mlh1 rad18 strain (AID 175); conditions: S. cerevisiae mlh1 rad18 strain growth inhibition; at 50.0 µM (retest, dose inferred, filed as 5.0); hits give high values
This is part of a sample that, as a whole, favours compounds with a hit. Of some 79,000 tested, about 15% had one in any assay.
Decide using growth inhibition: a value greater than or equal to 80% is rule met, a smaller one is rule not met.

Q) Determine whether measured growth inhibition meets or exceeds 80% for O=P(NC1CCCCC1)(OCc1ccccc1)OCc1ccccc1
A) rule not met

Q) Determine whether measured growth inhibition meets or exceeds 80% for O=C(O)c1cc2ccccc2c2c1C(=O)c1ccccc1-2
A) rule met

Q) Determine whether measured growth inhibition meets or exceeds 80% for COc1cc2ccnc(-c3c4ccccc4c(N)c4c(OC)c(OC)ccc34)c2cc1OC
A) rule not met

Q) Determine whether measured growth inhibition meets or exceeds 80% for Cc1c2cccc(Sc3ccccc3)c2c2c3c(cccc13)[S+](c1ccccc1)C2 (stereo not given)
A) rule met

Q) Determine whether measured growth inhibition meets or exceeds 80% for Cc1cc(C(C)(C)CC(C)(C)C)ccc1O
A) rule not met

Q) Determine whether measured growth inhibition meets or exceeds 80% for Nc1nc2ccc(NCc3ccc(C(=O)NC(CCC(=O)O)C(=O)O)cc3)cc2c(=O)[nH]1 (stereo not given)
A) rule not met

Q) Determine whether measured growth inhibition meets or exceeds 80% for O=[N+]([O-])c1ccc(N/N=C/Cc2ccccc2)c([N+](=O)[O-])c1
A) rule not met

Q) Determine whether measured growth inhibition meets or exceeds 80% for C[C@@](O)(/C=C/[C@H]1CC=CC(=O)O1)[C@@H](C[C@@H](O)\C=C/C=C\C=C\CO)OP(=O)(O)O
A) rule not met

Q) Determine whether measured growth inhibition meets or exceeds 80% for COc1oc(C(=O)NC2CCCCC2)c(-c2ccc(Cl)cc2)c1S(=O)(=O)c1ccccc1
A) rule met

Q) Determine whether measured growth inhibition meets or exceeds 80% for C[CH2][Sn]([CH2]C)([O]C(=O)C(N)Cc1ccccc1)[O]C(=O)C(N)Cc1ccccc1 (stereo not given)
A) rule not met

Q) Determine whether measured growth inhibition meets or exceeds 80% for CCCOC(=O)C(F)C(Br)C(=O)OCCC (stereo not given)
A) rule met

Q) Determine whether measured growth inhibition meets or exceeds 80% for CCCC(=O)Oc1c(C)cc([N+](=O)[O-])cc1[N+](=O)[O-]
A) rule met

Q) Determine whether measured growth inhibition meets or exceeds 80% for Oc1[nH]c2ccccc2c1N=NC(=S)N1CCCCC1
A) rule met

Q) Determine whether measured growth inhibition meets or exceeds 80% for CCCCCCN(CCCCCC)CC(O)c1ccnc2ccc(OC)cc12 (stereo not given)
A) rule not met

Q) Determine whether measured growth inhibition meets or exceeds 80% for CC(C)(C)[Si](C)(C)OCC1CCC(n2cnc3c(NC(=O)c4ccccc4)ncnc32)O1 (stereo not given)
A) rule not met

Q) Determine whether measured growth inhibition meets or exceeds 80% for CC(O)=NC(Cc1ccc2ccccc2c1)C(O)=NC(Cc1ccc(Cl)cc1)C(O)=NC(Cc1c[nH]c2ccccc12)C(O)=NC(CO)C(O)=NC(Cc1ccc(O)cc1)C(O)=NC(CCCN=C(N)N)C(O)=NC(CC(C)C)C(O)=NC(CCCN=C(N)N)C(=O)N1CCCC1C(O)=NC(C)C(=N)O (stereo not given)
A) rule not met

Q) Determine whether measured growth inhibition meets or exceeds 80% for CCOC(=O)c1ccc(NC(=O)O/N=C(/Cl)C(C)C)cc1
A) rule met

Q) Determine whether measured growth inhibition meets or exceeds 80% for CCCCc1ccc(-n2c(C)c(COC(=O)NC)c(COC(=O)NC)c2C)cc1
A) rule met

Q) Determine whether measured growth inhibition meets or exceeds 80% for Cc1ccc2c3ccc4c(c3n(C)c2c1)C(=O)C=CC4=O
A) rule not met

Q) Determine whether measured growth inhibition meets or exceeds 80% for Cc1ccccc1N=C(NO)c1ccccc1
A) rule not met

Q) Determine whether measured growth inhibition meets or exceeds 80% for CCN(CC)CCOc1cc(C)c2cc(Cc3ccccc3)ccc2n1
A) rule not met

Q) Determine whether measured growth inhibition meets or exceeds 80% for O=Cc1ccc2c(c1)C(=O)c1ccccc1C2=O
A) rule not met

Q) Determine whether measured growth inhibition meets or exceeds 80% for CC[N+](CC)(CC)c1ccccc1
A) rule met
